tested on: Inhibin beta A chain (activin A); experiment: small molecules binding activin A – biochemical, small-molecule microarray, 635 nm fluorescence scan, primary screen (AID 1107); details: INHBA, higher = more signal;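 further: mouse activin A protein probed at 4.33 µg/mL on printed slides; score merges bound-protein fluorescence near 667 nm with spot signal-to-noise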
Label Satisfied when composite z-score is at or above 0.6; otherwise label Not satisfied.

Reference set (5 entries):
>>> class_name("C[N+](C)(C)CCCC[C@@H]1NC(=O)[C@H]2C[C@@H](C(=O)NCCCCCCN)[C@@H](c3cccc(OCCO)c3)N2C1=O")
"Satisfied"
>>> class_name("CC(C)=CCCC(C)=CC(O)C1C=CC2C(=O)N(c3ccccc3)C(=O)C2N1Nc1ccc([N+](=O)[O-])cc1 (configuration not stated)")
"Not satisfied"
>>> class_name("COC(=O)[C@@]1(Cc2ccc(OC)cc2)[C@H]2c3cc(C(=O)N(C)C)n(Cc4cc(C)n(C)n4)c3C[C@H]2CN1C(=O)c1ccccc1")
"Satisfied"
>>> class_name("C=C(C(=O)CC[C@H](OC(=O)c1cccnc1)c1ccc(OCCO)cc1)C(C)C")
"Satisfied"
>>> class_name("C[C@@H]1ON(c2ccccc2)[C@H](c2ccccc2)[C@H]1C(=O)N1C(=O)OC[C@H]1Cc1ccccc1")
"Not satisfied"

Query block: # bool: composite z-score of `COCCOC(=O)N1C(=O)[C@@]2(c3cc(C#CCCO)ccc31)[C@H](c1ccc(OCCO)cc1)N1[C@H](c3ccccc3)[C@H](c3ccccc3)OC(=O)[C@H]1[C@@H]2C(=O)N1CCc2cc(OC)c(OC)cc2C1` >= 0.6
Result block: Not satisfied

Query block: # bool: composite z-score of `C=CCN1C(=O)[C@@]2(O[C@@H](CCO)[C@H]([Si](C)(C)c3ccc(OC)cc3)[C@H]2C)c2cc(NC(=O)[C@H](C)O)ccc21` >= 0.6
Result block: Not satisfied

Query block: # bool: composite z-score of `CC(C)C[C@@H]1NC(=O)[C@@H]2C[C@H](C(=O)NCCCC[N+](C)(C)C)[C@H](c3cccc(OCCO)c3)N2C1=O` >= 0.6
Result block: Satisfied

Query block: # bool: composite z-score of `COCCCNC(=O)[C@@H]1c2ccccc2C(=O)N(c2ccc(C)cn2)[C@H]1c1ccc(CO)cc1` >= 0.6
Result block: Not satisfied

Query block: # bool: composite z-score of `COc1ccc(C#Cc2ccc3c(c2)[C@]2(C(=O)N3)[C@H](C(N)=O)[C@H]3C(=O)O[C@H](c4ccccc4)[C@H](c4ccccc4)N3[C@@H]2c2ccc(O)cc2)cc1` >= 0.6
Result block: Not satisfied

Query block: # bool: composite z-score of `[N-]=[N+]=Nc1ccccc1[C@@H]1OC(c2ccc(OCCCO)cc2)=N[C@]1(CCS(=O)(=O)c1ccccc1)C(=O)NCc1ccccc1` >= 0.6
Result block: Satisfied
